# Test system: isolated carbachol contracted rat bladder strips
# method-summary: Relaxation of isolated carbachol contracted rat bladder strips
# particulars: Rattus norvegicus, read-out: IC50 for relaxation of carbachol contracted bladder strips
# Method: Using quantitative rtPCR, the expression of KCNQ1, KCNQ3 and KCNQ5 potassium channels was identified in the rat urinary bladder. […] To further probe M-current activity in the bladder, retigabine (10 μM, M-current agonist) was tested in isolated bladder smooth muscle cells using standard patch-clamp techniques. […] This hyperpolarization was reversed by the addition of linopirdine (50 μM an M-current antagonist) to the tissue bath. […]
readout-type: pIC50
Give bare numbers, as −log10 of the molar value.

Noted for CCOC(=O)Nc1ccc(NCc2ccc(F)cc2)cc1N : its pIC50 reads 5.46
